# Test Details: physchem
# Condition Summary: PBS buffer, pH 8
Measured Endpoint: half-life (h)
Answers are plain numbers, in h.

Any idea what its half-life is? The compound is CC(=O)C=Nc1c(NCC(O)C(O)C(O)CO)[nH]c(=O)[nH]c1=O (stereo not shown)
14

* * *

# Test Details: physchem
# Condition Summary: TBS buffer, pH 8
Measured Endpoint: half-life at 0.25 mM (h)
One number for each entry, in h.

Could you tell me which half-life at 0.25 mM is on file for CC(=O)C=Nc1c(NCC(O)C(O)C(O)CO)[nH]c(=O)[nH]c1=O (stereo not shown) ?
14.9

Values were extracted from paper PMC5344979.
